Hello, the source for this data is patent US7833939B2, in case you need it.

What melting point was measured for each of the following?

Data request, read-out melting point, for CC1(C)CC(SCc2c(C(F)(F)F)nn(C(C)(C)C)c2Cl)=NO1
79 to 81 °C

State the recorded melting point for this entry: Cn1nc(C(F)(F)F)c(CS(=O)(=O)C2=NOC(C)(C)C2)c1Cl
115 to 116 °C

Which melting point is reported for this compound? CC1(C)CC(S(=O)(=O)Cc2c(C(F)(F)F)nn(-c3ccccc3)c2Cl)=NO1
132 to 133 °C

Param item = CCn1nc(C(F)(F)F)c(CS(=O)(=O)C2=NOC(C)(C)C2)c1OC(F)F ; retrieve measured melting point.
98 to 100 °C

Param item = CC1(C)CC(S(=O)(=O)Cc2c(Cl)nn(C(F)F)c2C(F)(F)F)=NO1 ; retrieve measured melting point.
136 to 137 °C

Which melting point is reported for this compound? Cn1nc(C(F)(F)F)c(CS(=O)(=O)C2=NOC(C)(C)C2)c1C#N
105 to 108 °C

Suppose we examine the compound COc1c(CS(=O)(=O)C2=NOC(C)(C)C2)c(C(F)(F)F)nn1C ; what melting point value has been reported?
113 to 114 °C

For the compound Cn1nc(C(F)F)c(CS(=O)(=O)C2=NOC(C)(C)C2)c1Cl , what melting point is on record?
78 to 79 °C

---

measuredEndpoint: melting point

Name the recorded melting point for Cc1onc(C(F)(F)F)c1CS(=O)(=O)C1=NOC(C)(C)C1 .
135 to 136 °C

Which melting point value is on record for CC1(C)CC(S(=O)(=O)Cc2cnccc2C(F)(F)F)=NO1 ?
77 to 80 °C

Please report the recorded melting point for CON=C(C)c1c(C)sc(C)c1CS(=O)(=O)C1=NOC(C)(C)C1 .
95 to 96 °C

I'd like to know its melting point. The compound in question is CCOc1nn(C)c(C(F)(F)F)c1CS(=O)(=O)C1=NOC(C)(C)C1
124 to 125 °C

Please report the recorded melting point for CC1(C)CC(SCc2c(Cl)nn(C(F)F)c2C(F)(F)F)=NO1 .
89 to 90 °C

Returns the measured melting point for the input compound. Input: CC1(C)CC(SCc2c(C(F)(F)F)n[nH]c2Cl)=NO1
120 to 122 °C

Can you share its melting point? I mean this compound: CC1(C)CC(SCc2c(C(F)(F)F)nn(C(F)F)c2Cl)=NO1
41 to 42 °C

Which melting point reading was recorded for the compound CCn1nc(Cl)c(CS(=O)(=O)C2=NOC(C)(C)C2)c1Cl ?
105 to 107 °C

Could you tell me which melting point is on file for CCS(=O)(=O)c1c(CS(=O)(=O)C2=NOC(C)(C)C2)c(C(F)(F)F)nn1-c1ccccc1 ?
158 to 160 °C

I would be grateful if you could share the reported melting point for CC1(C)CC(S(=O)(=O)Cc2c(C(F)(F)F)nn(C(F)F)c2Cl)=NO1 .
126 to 127 °C

Entry CC1(C)CC(SCc2c(C(F)(F)F)nn(-c3ccccc3)c2Cl)=NO1 has what melting point?
89 to 90 °C

---

Please respond with reported melting point for every item in the list.

I have this compound here, CC1(C)CC(S(=O)(=O)Cc2c(C(F)(F)F)nn3c2OCCC3)=NO1 , and I need its recorded melting point.
151 to 152 °C

Item CN(C)c1c(CS(=O)(=O)C2=NOC(C)(C)C2)c(C(F)(F)F)nn1-c1ccccc1 has what recorded melting point?
150 to 151 °C

Request the reported melting point associated with Cn1nc(C(F)(F)F)c(CS(=O)(=O)C2=NOC(C)(C)C2)c1Oc1ccccc1Cl
67 to 70 °C

melting point for Cn1nc(C(F)(F)F)c(CS(=O)(=O)C2=NOC(C)(C)C2)c1OC1CCCC1 ?
113 to 114 °C
